Data origin, for the record: ChEMBL document CHEMBL5126562

protocol description: Lipophilicity, logD of compound at pH 7.4
Type: physicochemical
experimental parameters: buffer
Output 1 for records whose logD is lower than 4, 0 for records at or above 4.

{"compound": "CS(=O)(=O)c1ccc(CNC(=O)C2CCCN(c3cccc(C(F)(F)F)c3)C2=O)cc1 (configuration not stated)", "qualitative label": 1}
{"compound": "COc1ccc(N2CCN(C)CC2)c(CN2CCN(c3ccc(N4CCOCC4)cc3)C2=O)c1", "qualitative label": 1}
{"compound": "Cc1nc(Nc2cccc(N3CCCC3=O)n2)sc1-c1cc2c(c(S(C)(=O)=O)c1)C(=O)N([C@@H](C)C1CC1)C2", "qualitative label": 0}
{"compound": "CC(=O)N1CCc2cc(-c3cccc4c3CCCC4)cc(N3CCCC3=O)c21", "qualitative label": 1}
{"compound": "N#Cc1cccc2ncn(CC(=O)NCc3ccc(C(F)(F)F)nc3N3CCCCC3=O)c12", "qualitative label": 1}
{"compound": "CS(=O)(=O)c1ccc(CNC(=O)C2CCN(c3cccc(C(F)(F)F)c3)C2=O)cc1 (configuration not stated)", "qualitative label": 1}
